- protocol: NIH-3T3 fibroblast cytotoxicity, dose response, cytotoxicity control, cell-based, fluorescence, Alamar Blue, secondary assay (AID 2327);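 note: NIH-3T3 mouse fibroblasts cultured with fluconazole at 8 µg/mL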
- Assay type: functional
Activity calls are given as the source filed them.
Pick one: active, inactive

> print(dat)
                                 smiles.str     group
1     Oc1ccc(/C=N/n2c(S)nnc2COc2ccccc2)cc1O    active
2          CCCCCCCn1c2c(c(=N)c3ccccc31)CCC2  inactive
3  O=C(NCc1ccc(Cl)cc1)c1n[nH]c([N+](=O)[O-])c1Cl  inactive
4    Cc1ccc(C(=O)NNC(=O)c2cc3ccccc3cc2O)cc1  inactive

Next:
Input: What did this assay record as the result for `Cc1cccc(COc2ccccc2/C=N/Nc2ccc([N+](=O)[O-])cc2)c1` ?
Output: inactive

* * *

Entries and their EC50 values follow.
- protocol: Luminescence Cell-Based Dose Response HTS to Identify Inhibitors of 5'UTR Stem-Loop Driven Prion Protein mRNA Translation in H4 Neuroglioblastoma Cells. [Related pubchem assays: 1827 (Project Summary), 1813 (Primary HTS)]
- Assay type: functional
Activity calls are given as the source filed them.

Worked cases, EC50 given:
> print(dat)
                                   compound              obs.value
1  C[C@]12CC[C@H]3C(CCC4(O)CC(O)CC[C@]34C=O)C1=CC[C@H]2c1ccc(=O)oc1 (stereo not given in full)       5.93 µM (active)
2  CC(=O)N(Cc1ccc(F)cc1)C1=C(NCc2ccccc2)C(=O)c2ccccc2C1=O  > 120 µM (not active)
3                    CC1=CC(C)(C)Nc2ccccc21  > 120 µM (not active)
4  Cc1cc(C(=O)Nc2ccc(Cl)cc2)c(C)n1-c1ccccc1       8.36 µM (active)

# next compound below
Input: Any idea what EC50 was measured for CCC(C)Nc1nc(N)c([N+](=O)[O-])c(NC2CCCCC2)n1 (stereo not given) ?
Output: < 0.1 µM (active)

* * *

- assayed_target: Glucose-6-phosphate 1-dehydrogenase (Homo sapiens)
- Sequence (P11413 whole entry): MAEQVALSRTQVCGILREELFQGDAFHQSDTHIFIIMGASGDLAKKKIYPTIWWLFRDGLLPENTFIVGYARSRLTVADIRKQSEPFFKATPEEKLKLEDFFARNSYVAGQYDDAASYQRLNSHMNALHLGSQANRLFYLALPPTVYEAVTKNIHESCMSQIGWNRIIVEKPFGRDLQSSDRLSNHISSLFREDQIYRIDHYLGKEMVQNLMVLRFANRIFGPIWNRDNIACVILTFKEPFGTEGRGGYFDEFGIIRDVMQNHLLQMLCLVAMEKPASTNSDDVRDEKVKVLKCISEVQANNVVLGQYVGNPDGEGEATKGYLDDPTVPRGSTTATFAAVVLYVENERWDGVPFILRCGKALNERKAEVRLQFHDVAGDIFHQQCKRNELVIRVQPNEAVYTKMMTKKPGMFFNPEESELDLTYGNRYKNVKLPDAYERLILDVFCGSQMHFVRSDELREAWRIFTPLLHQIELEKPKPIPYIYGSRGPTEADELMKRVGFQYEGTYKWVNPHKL
- protocol: human G6PD enzyme inhibitors, dose response, selectivity assay for P. falciparum G6PD inhibitor project, biochemical, fluorescence (AID 504792)
- Type: functional
The source made the active and inactive calls.
Entries and their IC50 values follow.

> print(dat)
                                 smiles.str           obs.value
1  CC1=CC(C)(C)Nc2ccc(OC(=O)CN3C(=O)CCC3=O)cc21    54 µM (inactive)
2  COC(=O)[C@H](C)NC(=O)c1cc2c3ccccc3nc-2c[nH]1  > 80 µM (inactive)
3         CC(C)c1nnc(NC(=O)c2cc3ccccc3o2)s1  > 80 µM (inactive)

Input: Any idea what IC50 was measured for `COc1cc(N=c2ssnc2Cl)c(OC)cc1Cl` ?
Output: 68.8 µM (inactive)

Input: Try the molecule `CCOC(=O)c1c(OCC)[nH]c2c1cc(O)c1ccccc12`
Output: > 80 µM (inactive)

Input: Try the molecule `COC(=O)CCC(=O)Nc1sc(Cc2ccccc2)c(C)c1C(N)=O`
Output: > 80 µM (inactive)

* * *

- assayed_target: Leucine aminopeptidase (Plasmodium falciparum 3D7, UniProt Q8IL11)
- Sequence (Q8IL11 whole entry): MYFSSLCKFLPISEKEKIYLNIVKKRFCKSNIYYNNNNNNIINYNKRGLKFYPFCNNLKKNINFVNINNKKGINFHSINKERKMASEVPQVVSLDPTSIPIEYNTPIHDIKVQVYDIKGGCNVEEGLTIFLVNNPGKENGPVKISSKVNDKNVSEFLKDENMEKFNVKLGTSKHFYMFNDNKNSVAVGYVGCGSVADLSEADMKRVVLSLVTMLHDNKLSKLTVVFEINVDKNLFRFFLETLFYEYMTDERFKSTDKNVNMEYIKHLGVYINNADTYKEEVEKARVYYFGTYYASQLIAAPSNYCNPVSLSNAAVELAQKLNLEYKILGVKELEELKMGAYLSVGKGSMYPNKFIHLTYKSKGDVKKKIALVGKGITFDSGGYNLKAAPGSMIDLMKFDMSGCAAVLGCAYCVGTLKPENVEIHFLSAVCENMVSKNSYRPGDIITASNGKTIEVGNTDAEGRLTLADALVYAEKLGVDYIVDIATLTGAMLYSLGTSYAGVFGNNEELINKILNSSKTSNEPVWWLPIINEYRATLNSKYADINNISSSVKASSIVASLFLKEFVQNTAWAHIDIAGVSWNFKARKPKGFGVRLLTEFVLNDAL
- protocol: P. falciparum M17LAP inhibitors, primary screen, biochemical, fluorogenic H-Leu-NHMec substrate, 1536-well (AID 1619)
- Type: functional
The source made the active and inactive calls.
Entries and their IC50 values follow.

> print(dat)
                                   compound                            assayed.target  experimental.readout         obs.value
1              Cc1ccc(-c2cc(O)[nH]n2)c(C)c1  Leucine aminopeptidase (Plasmodium falciparum 3D7, UniProt Q8IL11)                  IC50   < 1 µM (active)
2  COc1ccc(-c2[nH]ncc2/C=C(\C#N)C(=O)NC2CC2)cc1  Leucine aminopeptidase (Plasmodium falciparum 3D7, UniProt Q8IL11)                  IC50  36.9 µM (active)
3          COc1ccc(NC(=O)Cc2c(F)cccc2Cl)cc1  Leucine aminopeptidase (Plasmodium falciparum 3D7, UniProt Q8IL11)                  IC50  13.6 µM (active)
4  CCCCCCCCc1nnc(SC(C)C(=O)O)[nH]1 (stereo not given)  Leucine aminopeptidase (Plasmodium falciparum 3D7, UniProt Q8IL11)                  IC50  5.32 µM (active)

Input: Any idea what IC50 was measured for `O=C(CSc1ccccc1C(=O)O)NCc1ccc(Cl)cc1` ?
Output: 17.4 µM (active)
